- Test system: PPARg DBDmut IVT, anti-PPARg (DBD mutation: PPARg1 K132A/R137A, NR concentration 270 nM)
- TEST: PBM binding z-score (relative to random genomic background probes); higher = stronger binding; sequences stand for … in GC…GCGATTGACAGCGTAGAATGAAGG
Please note: 1 (yes) applies when PBM binding z-score is 0.1 or greater, and 0 (no) applies otherwise.

Use these answered entries as a reference point.
# RESIDUE SEQUENCE, ASSIGNED CLASS
measured = [
    ("ATATGTAGGTTAGGGTCAGTCAGAAAGTAGGGAA", "1 (yes)"),
    ("CGTCAAAGGTCAAAGGTCAGTGAAGAGATGACGG", "1 (yes)"),
    ("CCTAGTTGGTCAAGGTCACACCCGCTATAGGTAC", "1 (yes)"),
    ("AGAACGAGGTCACGCTGAGTTGATAGCAGAGTAG", "1 (yes)"),
    ("AATACAGGGTCATCGTAGGTCAGAGTACGCACAG", "1 (yes)"),
]

q: Has "CATACAGGGTCGGCTAGGCCAGAGTAGGGACGGC" a recorded PBM binding z-score greater than or equal to 0.1?
a: 0 (no)

q: Next record, please: "CGTCAAAGTTCAACTAAGGTTACGTAAAGCACGC"
a: 1 (yes)

q: Try the sequence "AGAATGAGGTCACCAAAGATCAGGGAAACGCTTG"
a: 1 (yes)

q: Okay, and "AGTCAAAGTTCAGGACGACGTAACGTAAAGCACG" ?
a: 0 (no)

---

This listing pairs sequences with measured PBM binding z-score.
- Tested on: VDR homodimer (NR concentration 270 nM)
- TEST: PBM binding z-score (relative to random genomic background probes); higher = stronger binding; sequences stand for … in GC…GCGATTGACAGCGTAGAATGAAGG

# example entries with known answers
# RESIDUE SEQUENCE, TEST TARGET, RESULT VALUE
rows = [
    ("ATCGAAAGGTCCACGAGGTGAGTATACACCGTTT", "VDR homodimer (NR concentration 270 nM)", 0.691),
    ("GCTGCTAGGTCAACTGATGGTCACCTAAAGCTCG", "VDR homodimer (NR concentration 270 nM)", 0.0494),
    ("TTGCCTAGGTCATTGGGCCAGTATAGTACGCATC", "VDR homodimer (NR concentration 270 nM)", 1.14),
]

q: // PBM binding z-score lookup, key: "CCTACTGGGTCACGAAAGGTCATTGATTCAGTGA"
a: 2.59

q: Similarly, "CCTTAGGGGTCACTCCAGGTTATAGCATCGGAGT" ?
a: 4.35

---

- System: RARb:RXRa (NR concentration 270 nM, RXRa partner concentration 90 nM)
- TEST: PBM binding z-score (relative to random genomic background probes); higher = stronger binding; sequences stand for … in GC…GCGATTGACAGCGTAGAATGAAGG
READOUT NAME: PBM binding z-score
Just the number.

# RESIDUE SEQUENCE, RESULT VALUE
data = [
    ("CAAACCAGGTCACAGAGGTCAAAGTCCGTGCGTA", 5.41),
    ("GCATATAGGTAATACAAGGTCAAAGTCCGATTGT", 2.92),
    ("TTACCAAGGTGAACGGTCGTTGATGCACGCCTTG", 2.03),
    ("TACCCTAGGTCATTGGGCCAGTATAGTACGCATC", 3.87),
    ("CGAACGAGGTCAAAGGACAGTGAAAGGCGACGTA", 5.01),
    ("GATATAGGGTCAGCTAGAGGCCAGAGTATGGAAA", 4.34),
]

q: Missing value: PBM binding z-score, RARb:RXRa (NR concentration 270 nM, RXRa partner concentration 90 nM), entry "CCTTACGGGTCACGTGGTTATAGCACGACGAGCG" . Fill in?
a: 4.49

q: What do you get for "TCTAGTTGGTCACGGAGGGCACACACGACGGGTA" ?
a: 2.35

q: Request: "CGTCCAAGGTCAGCGGGTCAGTGAAAGCGACGTG"
a: 5.2

q: For "AAAACAGGGTCATCGTAGGCCAGAGTACGCACAG" then?
a: 4.44

q: Same for "CCAACTGGGCCAAAAAGGTCATTGATGCCGATAA"
a: 3.94

q: What do you get for "CGTCCAAGGTCATTGGAGGTCAGTGAAGACAGAT" ?
a: 5.56

---

- Test system: PPARg:RXRa 270nM:90nM, anti-RXR (NR concentration 270 nM, RXRa partner concentration 90 nM)
- TEST: PBM binding z-score (relative to random genomic background probes); higher = stronger binding; sequences stand for … in GC…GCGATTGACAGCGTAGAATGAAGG
Parameter PBM binding z-score: see the listing below.

# RESIDUE SEQUENCE, READOUT NAME, RESULT VALUE
records = [
    ("TATACAGGGTCAAAGGCCAAAGTACGAATGTCGA", "PBM binding z-score", 7.98),
    ("CACACTAGGTCACAGAGGTCAAAGTCCGTGCGTA", "PBM binding z-score", 7.9),
]

Pending sequence:
q: Tell me the measured PBM binding z-score of "ATCGAAAGGTCAAGGTGAGTATAGAGAAAGGGAA" , please.
a: 7.77

---

- Tested on: RARb:RXRa (NR concentration 270 nM, RXRa partner concentration 90 nM)
- TEST: PBM binding z-score (relative to random genomic background probes); higher = stronger binding; sequences stand for … in GC…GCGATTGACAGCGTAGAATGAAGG
Quick rule for you: PBM binding z-score at 4 or higher means Condition met, lower means Condition not met.

q: Assess whether reported PBM binding z-score for "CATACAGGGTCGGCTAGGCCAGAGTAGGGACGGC" sits at 4 or higher.
a: Condition not met

---

- Test system: LXRa homodimer (NR concentration 270 nM)
- TEST: PBM binding z-score (relative to random genomic background probes); higher = stronger binding; sequences stand for … in GC…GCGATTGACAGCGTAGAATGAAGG
PBM binding z-score reference

# RESIDUE SEQUENCE, PBM binding z-score
data = [
    ("ATATGTAGGTTATCGGGTCATACAGTTTGCGCAT", 1.45),
    ("CGTCCAAGGTCAATGCTAGATCAGTGAAAGCATT", 0.407),
    ("CGAACTAGGTCATCCAGGTCAGTGAATACATTGA", 1.02),
]

q: Fill in the blank: the reported PBM binding z-score of "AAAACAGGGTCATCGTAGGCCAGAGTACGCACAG" is ____.
a: 0.569

q: Entry "CGAACTAGGTCGAGGACAGTGAATCTCCGCACGC" please
a: -0.716

q: Follow-up entry: "CCTTACGGGTTACTCCAGGTTATAGCATCGGAGT"
a: 5.38

q: And then "TGTCAAAGTTCAAAGGTTACGTAAGTATCCACAC" , what is it?
a: 5.25

---

- System: LXRb:RXRa (NR concentration 270 nM, RXRa partner concentration 90 nM)
- TEST: PBM binding z-score (relative to random genomic background probes); higher = stronger binding; sequences stand for … in GC…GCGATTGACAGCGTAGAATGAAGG
READOUT NAME: PBM binding z-score
Just the number, please, no unit attached.

Solved cases below.
# RESIDUE SEQUENCE, TEST TARGET, RESULT VALUE
measured = [
    ("CGTCCAAGGACAATGCTAGGTCAGTGAAAGCATT", "LXRb:RXRa (NR concentration 270 nM, RXRa partner concentration 90 nM)", -0.0607),
    ("TCTTGTAGATCGATAGAGGTTAAGAAAGTGCGCT", "LXRb:RXRa (NR concentration 270 nM, RXRa partner concentration 90 nM)", 1.52),
    ("CGTCCAAGGTCACGGTCAGTGAAAGAGACTCGAA", "LXRb:RXRa (NR concentration 270 nM, RXRa partner concentration 90 nM)", 4.76),
    ("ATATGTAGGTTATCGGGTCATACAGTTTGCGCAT", "LXRb:RXRa (NR concentration 270 nM, RXRa partner concentration 90 nM)", 3),
]

// below: PBM binding z-score requested for another sequence
q: Fill blank: measured PBM binding z-score of the sequence "CCTCGGAGGTCAACAGGAGGTCAGAGCTGCCAGA" is ____.
a: 5.75

---

- Test system: LXRa:RXRa (NR concentration 270 nM, RXRa partner concentration 90 nM)
- TEST: PBM binding z-score (relative to random genomic background probes); higher = stronger binding; sequences stand for … in GC…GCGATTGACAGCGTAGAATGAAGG
READOUT NAME: PBM binding z-score
Give only the figure.

Past entries and their recorded results:
# RESIDUE SEQUENCE, TEST TARGET, READOUT NAME, RESULT VALUE
measured = [
    ("CGAACTAGGTCACCCAGGACAGTGAATACATTGA", "LXRa:RXRa (NR concentration 270 nM, RXRa partner concentration 90 nM)", "PBM binding z-score", 2.03),
    ("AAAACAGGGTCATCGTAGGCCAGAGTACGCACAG", "LXRa:RXRa (NR concentration 270 nM, RXRa partner concentration 90 nM)", "PBM binding z-score", 6.26),
    ("AACGAAAGGTCGAAGGTGAGTATACCCACCCGAA", "LXRa:RXRa (NR concentration 270 nM, RXRa partner concentration 90 nM)", "PBM binding z-score", 3.94),
]

q: Please give the measured PBM binding z-score for this sequence: "TTGCCAAGGTGAAAGGTCGTTGATGCACGCCTTG"
a: 3.11

q: # iterate: "ATCGAAAGGTCGACGAGGTGAGTAAACACCGTTT"
a: 3.58

q: # repeat for "GATACAGGGTCGGCTAGAGGCCAGAGTATGGAAA"
a: 0.191

q: Also "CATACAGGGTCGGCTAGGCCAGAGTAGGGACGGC" ?
a: 0.0375

q: Param item: "GATACAGGGTCAGCTACAGGCCAGAGTATGGAAA"
a: 2.54

Data origin: the supplement of paper PMC6555819
